Recorded values, source the supplement of paper PMC6555819.

tested on: LXRb:RXRa (NR concentration 270 nM, RXRa partner concentration 90 nM); test: PBM binding z-score (relative to random genomic background probes); higher = stronger binding; sequences stand for … in GC…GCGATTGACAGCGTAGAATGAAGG
result type: PBM binding z-score
Numbers only.

Guide cases for PBM binding z-score, answers given:
- seq text: "CGAACTAGGTAATTGACAGGACAGTGAATAGTAA"
  result type: "PBM binding z-score"
  recorded value: -0.434
- seq text: "CATACATGGTCAGCTAGGCCAGAGTAGGGACGGC"
  result type: "PBM binding z-score"
  recorded value: -0.962
- seq text: "TGTCAAAGTTCAAAGGTACCGTAAGTATCCACAC"
  result type: "PBM binding z-score"
  recorded value: 4.31
- seq text: "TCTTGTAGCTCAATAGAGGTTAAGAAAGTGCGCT"
  result type: "PBM binding z-score"
  recorded value: 1.49
- seq text: "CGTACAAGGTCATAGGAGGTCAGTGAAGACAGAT"
  result type: "PBM binding z-score"
  recorded value: 6.46

Can you give me PBM binding z-score for all of these, one by one?
1. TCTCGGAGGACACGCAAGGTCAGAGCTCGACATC
2. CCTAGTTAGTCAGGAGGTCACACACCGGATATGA
3. GATACACGGTCAGCTAGAGGCCAGAGTATGGAAA
4. CAAACTGGGTCACGAAAGGTCAAAGTCGAATGAC
5. CCTTATGGGTCACGAGGTTATAGCACGACGAGCG
6. TCTATTAGGTGAAGGGCAACCGACGAGTCCGTTT

[1.58, 3.68, -0.57, 7.01, 3.32, 0.669]

====

test system: PXR homodimer (NR concentration 270 nM); experiment: PBM binding z-score (relative to random genomic background probes); higher = stronger binding; sequences stand for … in GC…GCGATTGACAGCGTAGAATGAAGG
For each of the sequences below, state its PBM binding z-score.
One number for each entry.

Guide cases for PBM binding z-score, answers given:
- seq text: "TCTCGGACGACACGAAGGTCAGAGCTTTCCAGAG"
  test system: "PXR homodimer (NR concentration 270 nM)"
  PBM binding z-score: -0.245
- seq text: "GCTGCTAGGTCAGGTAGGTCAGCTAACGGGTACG"
  test system: "PXR homodimer (NR concentration 270 nM)"
  PBM binding z-score: -0.0271
- seq text: "TCTTGTATATCAGCAGGTTAAGAAAGCTGGCCAA"
  test system: "PXR homodimer (NR concentration 270 nM)"
  PBM binding z-score: 0.0851
- seq text: "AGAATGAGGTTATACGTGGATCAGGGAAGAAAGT"
  test system: "PXR homodimer (NR concentration 270 nM)"
  PBM binding z-score: 0.993
- seq text: "TGTCAAAGTTCAAAGTTAACGTAAGTATCCACAC"
  test system: "PXR homodimer (NR concentration 270 nM)"
  PBM binding z-score: 4.24
- seq text: "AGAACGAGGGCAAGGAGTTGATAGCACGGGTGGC"
  test system: "PXR homodimer (NR concentration 270 nM)"
  PBM binding z-score: 1.54

Can you give me PBM binding z-score for all of these, one by one?
1. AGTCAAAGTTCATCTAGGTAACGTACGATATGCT
2. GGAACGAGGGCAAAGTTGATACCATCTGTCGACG
3. CCTCGGAGGACAACAGGAGGTCAGAGTTGCCAGA
4. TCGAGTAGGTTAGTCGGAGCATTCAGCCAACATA
5. GCGACTGGGTCATCAGCAGGTTACCATAACTTAA
6. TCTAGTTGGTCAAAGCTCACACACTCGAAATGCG

1: 6.7; 2: 0.644; 3: 1.11; 4: -0.761; 5: -0.585; 6: -0.0371
